Every entry's value here was drawn from PubChem BioAssay (NCI).

Some compounds, each annotated with its measured TGI.
Tested on: DU-145 prostate
assay info: NCI tumour cell line growth inhibition, 48 h

compound	TGI
O=C(CCl)NCCNc1nccc(Nc2ccc(S(=O)(=O)Nc3ccccn3)cc2)n1	12.3 µM
COc1cc2c(c(OC)c1OC)C(=O)[C@@H]1[C@H]2N1C(=O)NCCCl	> 100 µM

Record summary for CCCCOC(=O)c1ccc(N)cc1 : reported TGI = > 100 µM

// sample CO[C@H]1C=CO[C@@]2(C)Oc3c(C)c(O)c4c(O)c(c(CN5CCN(C)CC5)c(O)c4c3C2=O)NC(=O)/C(C)=C\C=C[C@H](C)[C@H](O)C(C)[C@@H](O)C(C)[C@H](OC(C)=O)[C@@H]1C (some centres undefined) , its TGI was > 100 µM

Data point: BrC(Br)=C1C(=C(Br)Br)C(Br)C1Br (centres undefined) ; TGI = 0.502 µM

Record summary for Clc1cccc(-c2sc(-c3ccsc3)cc2Cc2ccsc2)c1 : reported TGI = > 10 µM

Data point: Cc1ccc(C(=O)Nc2ccc(CP(=O)(O)O)cc2)cc1NC(=O)c1cccc(N)c1 ; TGI = > 100 µM

So for S=C(NCCc1ccccn1)N/N=C/c1ccccn1 , the logged TGI turned out to be > 100 µM

Kindly note the recorded TGI for COC(=O)c1ccc2c(c1)C(=O)c1c-2n(CCCCl)c(=O)c2cc([N+](=O)[O-])ccc12 , which is > 100 µM
